Reported pIC50 values for a set of molecules
Tested on: P388
method: Cytotoxicity against mouse P388 cells by MTT method
Type: functional, cell-based
Scale: negative log10 of molar concentration, which is what pIC50 denotes.

molecule: CC[C@@]1(O)C(=O)OCc2c1cc1n(c2=O)Cc2cc3ccccc3nc2-1 [CAMPTOTHECIN]
measuredOn: P388
observed: 8.40
//
molecule: COc1cc2cc(CCCN(C)C)c3c4cc5c(cc4ncc3c2cc1OC)OCO5
measuredOn: P388
observed: 7.40
//
molecule: COc1cc2cc(CCN(C)C)c3c4cc5c(cc4ncc3c2cc1OC)OCO5
measuredOn: P388
observed: 7.82
//
molecule: COc1cc2cc(/C=C/CN(C)C)c3c4cc5c(cc4ncc3c2cc1OC)OCO5
measuredOn: P388
observed: 7.40

Now for a further molecule.
Query: pIC50; subject: COc1cc2cc(CO)c3c4cc5c(cc4ncc3c2cc1OC)OCO5
7.22

###

method: Cytotoxicity against human KBH5.0 cells by MTT method
Type: functional, cell-based
details: KBH5.0 cell
endpointLabel: IC50 (nM)
Provide the reading as a plain figure in nM.

structureSmilesString: COc1cc2cc(CO)c3c4cc5c(cc4ncc3c2cc1OC)OCO5
readoutUnit: nM
IC50: 400

For the molecule COc1cc2cc(C(=O)N(C)C)c3c4cc5c(cc4ncc3c2cc1OC)OCO5 , what IC50 is on record?
3600

What value of IC50 has been reported for the following molecule? CCc1c2c(nc3ccc(OC(=O)N4CCC(N5CCCCC5)CC4)cc13)-c1cc3c(c(=O)n1C2)COC(=O)[C@]3(O)CC
7400

###

System: P388
method: Cytotoxicity against mouse P388 cells by MTT method
Type: functional, cell-based
Field 'label' (enum: Criterion met / Criterion not met). Set to Criterion met when IC50 is strictly under 200 nM; else Criterion not met.

structureSmilesString: COc1cc2cc(C(=O)NCCN(C)C)c3c4cc5c(cc4ncc3c2cc1OC)OCO5
answerLabel: Criterion met

Hi there! Is IC50 for COc1cc2cc(CN)c3c4cc5c(cc4ncc3c2cc1OC)OCO5 below 200 nM, do you know?
Criterion met

Please determine if COc1cc2cc(CCN)c3c4cc5c(cc4ncc3c2cc1OC)OCO5 is below 200 nM in terms of IC50.
Criterion met

Is the reported IC50 for COc1cc2cc(C(=O)N(C)C)c3c4cc5c(cc4ncc3c2cc1OC)OCO5 strictly below 200 nM?
Criterion not met

is_below(IC50, 200 nM) for COc1cc2cc(/C=C/[N+](=O)[O-])c3c4cc5c(cc4ncc3c2cc1OC)OCO5 ?
Criterion met

###

method: Cytotoxicity against human KBH5.0 cells by MTT method
Assay type: functional, cell-based
details: KBH5.0 cell
IC50 strictly less than 200 nM = Condition met. Otherwise Condition not met.

structureSmilesString: COc1cc2cc(CCN(C)C)c3c4cc5c(cc4ncc3c2cc1OC)OCO5
answerLabel: Condition met

structureSmilesString: COc1cc2cc(CN)c3c4cc5c(cc4ncc3c2cc1OC)OCO5
answerLabel: Condition not met

structureSmilesString: COc1cc2cc(CC[N+](=O)[O-])c3c4cc5c(cc4ncc3c2cc1OC)OCO5
answerLabel: Condition not met

Take the compound CCOC(=O)c1cc2cc(OC)c(OC)cc2c2cnc3cc4c(cc3c12)OCO4 and say whether its IC50 is less than 200 nM.
Condition not met

Threshold test, IC50 < 200 nM: COc1cc2cc(C(N)=O)c3c4cc5c(cc4ncc3c2cc1OC)OCO5
Condition not met

###

Property: pIC50; scope: individual compounds
Test system: P388
method: Cytotoxicity against mouse P388 cells by MTT method
Type: functional, cell-based
pIC50 here is simply -log10 of the concentration when that concentration is written in mol/L.

A selection of reference data follows.
structureSmilesString: COc1cc2cc(C=O)c3c4cc5c(cc4ncc3c2cc1OC)OCO5
measuredOn: P388
pIC50: 6.92
//
structureSmilesString: CCOC(=O)c1cc2cc(OC)c(OC)cc2c2cnc3cc4c(cc3c12)OCO4
measuredOn: P388
pIC50: 5.40
//
structureSmilesString: COc1cc2cc(C(N)=O)c3c4cc5c(cc4ncc3c2cc1OC)OCO5
measuredOn: P388
pIC50: 7.46

Give its pIC50 value. Item: COc1cc2cc(CC[N+](=O)[O-])c3c4cc5c(cc4ncc3c2cc1OC)OCO5
7.15

So what does the record say about pIC50 for COc1cc2cc(CN(C)C)c3c4cc5c(cc4ncc3c2cc1OC)OCO5 ?
7.00

###

method: Cytotoxicity against camptothecin-resistant human CPT-K5 cells by MTT method
Assay type: functional, cell-based
pIC50: −log10 of the molar value.
Quick rule: pIC50 of at least 6 means y, below that means n.

Check out these entries, answers already filled in.
structureSmilesString: COc1cc2cc(/C=C/CN(C)C)c3c4cc5c(cc4ncc3c2cc1OC)OCO5
answerLabel: y
--
structureSmilesString: COc1cc2cc(C=O)c3c4cc5c(cc4ncc3c2cc1OC)OCO5
answerLabel: n
--
structureSmilesString: COc1cc2cc(CCCN(C)C)c3c4cc5c(cc4ncc3c2cc1OC)OCO5
answerLabel: y

// inclusive: pIC50 at least 6? input: COc1cc2cc(CC[N+](=O)[O-])c3c4cc5c(cc4ncc3c2cc1OC)OCO5
n

Decide: pIC50 of COc1cc2cc(CN(C)C)c3c4cc5c(cc4ncc3c2cc1OC)OCO5 >= 6?
n

Determine whether measured pIC50 meets or exceeds 6 for COc1cc2cc(CN)c3c4cc5c(cc4ncc3c2cc1OC)OCO5
n

# bool: pIC50 of COc1cc2cc(C(=O)N(C)C)c3c4cc5c(cc4ncc3c2cc1OC)OCO5 >= 6
n

Decide: pIC50 of CCOC(=O)c1cc2cc(OC)c(OC)cc2c2cnc3cc4c(cc3c12)OCO4 >= 6?
n

// inclusive: pIC50 at least 6? input: COc1cc2cc(C(N)=O)c3c4cc5c(cc4ncc3c2cc1OC)OCO5
n

Test whether the compound COc1cc2cc(/C=C/[N+](=O)[O-])c3c4cc5c(cc4ncc3c2cc1OC)OCO5 records pIC50 of 6 or higher.
n

Check the entry COc1cc2cc(CO)c3c4cc5c(cc4ncc3c2cc1OC)OCO5 : does pIC50 equal or exceed 6?
n

Determine whether this compound has pIC50 no lower than 6: COc1cc2cc(CCN(C)C)c3c4cc5c(cc4ncc3c2cc1OC)OCO5
y

Hello, I need to know if CNC(=O)c1cc2cc(OC)c(OC)cc2c2cnc3cc4c(cc3c12)OCO4 has measured pIC50 not below 6. Thanks!
n

Is it the case that COc1cc2cc(C(=O)NCCN(C)C)c3c4cc5c(cc4ncc3c2cc1OC)OCO5 has pIC50 reaching or exceeding 6?
y

Say whether COc1cc2cc(CCN)c3c4cc5c(cc4ncc3c2cc1OC)OCO5 shows pIC50 of 6 or more.
y

###

method: Cytotoxicity against human KBH5.0 cells by MTT method
Format: functional, cell-based
details: KBH5.0 cell
endpointLabel: pIC50
Schema: pIC50 number; meaning minus log10 of the concentration expressed in molar units.

structureSmilesString: COc1cc2cc(CCN)c3c4cc5c(cc4ncc3c2cc1OC)OCO5
pIC50: 6.96

structureSmilesString: COc1cc2cc(C=O)c3c4cc5c(cc4ncc3c2cc1OC)OCO5
pIC50: 6.54

structureSmilesString: COc1cc2cc(CCCN(C)C)c3c4cc5c(cc4ncc3c2cc1OC)OCO5
pIC50: 6.89

structureSmilesString: CNC(=O)c1cc2cc(OC)c(OC)cc2c2cnc3cc4c(cc3c12)OCO4
pIC50: 6.32

structureSmilesString: COc1cc2cc(/C=C/[N+](=O)[O-])c3c4cc5c(cc4ncc3c2cc1OC)OCO5
pIC50: 6.38

Give its pIC50 value. Item: COc1cc2cc(/C=C/CN(C)C)c3c4cc5c(cc4ncc3c2cc1OC)OCO5
7.15

Param item = COc1cc2cc(CN(C)C)c3c4cc5c(cc4ncc3c2cc1OC)OCO5 ; retrieve measured pIC50.
6.54
